subject.of.test: KDR (human, UniProt P35968 20-1356)
Sequence (P35968 20-1356): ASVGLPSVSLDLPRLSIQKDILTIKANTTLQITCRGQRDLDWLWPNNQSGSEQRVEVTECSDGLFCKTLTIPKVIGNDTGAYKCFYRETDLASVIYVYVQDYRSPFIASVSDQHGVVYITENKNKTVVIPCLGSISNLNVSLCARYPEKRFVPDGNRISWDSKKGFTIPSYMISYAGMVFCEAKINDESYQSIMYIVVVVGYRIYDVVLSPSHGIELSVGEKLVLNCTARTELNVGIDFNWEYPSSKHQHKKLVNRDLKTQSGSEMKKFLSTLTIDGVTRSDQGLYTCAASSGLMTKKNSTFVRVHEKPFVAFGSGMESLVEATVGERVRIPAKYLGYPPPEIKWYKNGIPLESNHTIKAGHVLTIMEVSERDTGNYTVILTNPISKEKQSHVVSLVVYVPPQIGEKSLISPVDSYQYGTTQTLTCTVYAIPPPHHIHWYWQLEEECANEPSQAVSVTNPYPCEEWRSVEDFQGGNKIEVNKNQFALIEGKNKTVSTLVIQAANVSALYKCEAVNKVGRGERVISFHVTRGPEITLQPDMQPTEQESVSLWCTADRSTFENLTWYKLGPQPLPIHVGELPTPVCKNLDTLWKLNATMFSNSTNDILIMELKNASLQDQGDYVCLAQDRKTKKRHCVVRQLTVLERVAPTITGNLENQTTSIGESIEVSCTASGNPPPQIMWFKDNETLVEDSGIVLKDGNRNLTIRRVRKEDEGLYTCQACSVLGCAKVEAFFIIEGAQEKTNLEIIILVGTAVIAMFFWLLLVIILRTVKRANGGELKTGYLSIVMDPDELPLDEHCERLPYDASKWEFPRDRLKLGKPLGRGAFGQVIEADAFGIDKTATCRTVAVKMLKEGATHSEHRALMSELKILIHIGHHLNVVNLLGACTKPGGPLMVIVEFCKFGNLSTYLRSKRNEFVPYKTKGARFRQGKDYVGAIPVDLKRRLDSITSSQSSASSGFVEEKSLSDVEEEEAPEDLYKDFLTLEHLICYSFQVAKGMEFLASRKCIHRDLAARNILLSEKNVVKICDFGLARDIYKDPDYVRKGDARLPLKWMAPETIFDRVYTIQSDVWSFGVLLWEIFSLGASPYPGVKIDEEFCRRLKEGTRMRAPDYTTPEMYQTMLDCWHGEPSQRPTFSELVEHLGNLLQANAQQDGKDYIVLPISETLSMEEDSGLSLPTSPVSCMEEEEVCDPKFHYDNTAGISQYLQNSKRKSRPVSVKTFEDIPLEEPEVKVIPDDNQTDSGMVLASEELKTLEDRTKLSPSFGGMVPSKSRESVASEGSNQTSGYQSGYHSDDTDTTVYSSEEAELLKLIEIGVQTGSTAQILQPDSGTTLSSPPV
experiment: cell-based or functional assay
observed.property: % of Max VEGF KDR pTyr Activity (at 133 nM antibody concentration), N = 1 (%)
Give just the numeric value; % need not be written.

INPUT: Endpoint output: % of Max VEGF KDR pTyr Activity (at 133 nM antibody concentration), N = 1 of 24B3 (antibody, V domains shown) VH: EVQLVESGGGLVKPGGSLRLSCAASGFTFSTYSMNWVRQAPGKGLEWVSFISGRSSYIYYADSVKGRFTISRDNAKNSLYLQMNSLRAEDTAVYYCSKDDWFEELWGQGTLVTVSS VL: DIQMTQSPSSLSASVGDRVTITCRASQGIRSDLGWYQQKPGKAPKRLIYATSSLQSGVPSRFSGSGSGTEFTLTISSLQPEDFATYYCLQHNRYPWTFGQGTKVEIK . Value?
OUTPUT: 12
